- target.of.assay: GlcNAc(b1-3)Gal(b1-4)GlcNAc(b1-3)Gal(b1-4)GlcNAc(b1-3)Gal(b1-4)GlcNAc(b1-3)Gal(b1-4)GlcNAc(b1-2)Man(a1-3)[GlcNAc(b1-3)Gal(b1-4)GlcNAc(b1-3)Gal(b1-4)GlcNAc(b1-3)Gal(b1-4)GlcNAc(b1-3)Gal(b1-4)GlcNAc(b1-2)Man(a1-6)]Man(b1-4)GlcNAc(b1-4)[Fuc(a1-6)]GlcNAc
- assay.method.text: glycan array binding signal (z-score within array); higher = stronger binding
- test.settings: glycan notation: IUPAC condensed, linker removed
The entries come from a sample that favours the strongest signals as a whole.
attribute.measured: glycan array binding signal (z-score)
Please state the value as a number alone, without comment.

>  <binder>
DrGal3 (Danio rerio) (protein) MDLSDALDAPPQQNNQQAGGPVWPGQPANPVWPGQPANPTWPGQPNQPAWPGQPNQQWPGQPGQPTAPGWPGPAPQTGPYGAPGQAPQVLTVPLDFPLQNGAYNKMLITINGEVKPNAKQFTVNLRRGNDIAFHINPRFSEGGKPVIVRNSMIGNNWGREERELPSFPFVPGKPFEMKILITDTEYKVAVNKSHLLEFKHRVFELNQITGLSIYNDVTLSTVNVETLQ

>  <reported.value>
5.55

$$$$
>  <binder>
Langerin K313I (Homo sapiens), Q9UJ71 (protein) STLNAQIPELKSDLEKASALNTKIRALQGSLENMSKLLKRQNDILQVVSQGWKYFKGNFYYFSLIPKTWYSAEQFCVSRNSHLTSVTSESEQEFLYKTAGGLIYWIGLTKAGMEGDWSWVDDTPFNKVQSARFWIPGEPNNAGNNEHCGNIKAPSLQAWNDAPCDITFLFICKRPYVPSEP

>  <reported.value>
-0.005

$$$$

Next binder, please.
Incoming: Tell me the measured glycan array binding signal (z-score) of Gal 8 (Mus musculus), Q9JL15 (protein) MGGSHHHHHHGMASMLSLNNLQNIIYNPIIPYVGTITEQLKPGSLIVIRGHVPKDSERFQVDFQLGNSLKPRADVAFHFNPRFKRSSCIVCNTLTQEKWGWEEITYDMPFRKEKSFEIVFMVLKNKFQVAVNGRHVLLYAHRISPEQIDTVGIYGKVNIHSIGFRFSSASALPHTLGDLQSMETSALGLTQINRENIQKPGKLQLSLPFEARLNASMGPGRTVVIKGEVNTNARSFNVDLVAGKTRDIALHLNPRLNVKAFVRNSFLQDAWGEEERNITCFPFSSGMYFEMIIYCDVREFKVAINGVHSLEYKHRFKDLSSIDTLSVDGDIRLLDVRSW , please.
Outgoing: 3.01
